# DC50 values compiled below
- System Under Test: SMARCA2-HiBiT (Homo sapiens)
- Construct: SMARCA2-HiBiT knock-in Hela monoclonal cell (CS302366); host or cells: HeLa monoclonal knock-in line (CRISPR HiBiT knock-in at the endogenous locus, heterozygous)
- Sequence (P51531 whole entry): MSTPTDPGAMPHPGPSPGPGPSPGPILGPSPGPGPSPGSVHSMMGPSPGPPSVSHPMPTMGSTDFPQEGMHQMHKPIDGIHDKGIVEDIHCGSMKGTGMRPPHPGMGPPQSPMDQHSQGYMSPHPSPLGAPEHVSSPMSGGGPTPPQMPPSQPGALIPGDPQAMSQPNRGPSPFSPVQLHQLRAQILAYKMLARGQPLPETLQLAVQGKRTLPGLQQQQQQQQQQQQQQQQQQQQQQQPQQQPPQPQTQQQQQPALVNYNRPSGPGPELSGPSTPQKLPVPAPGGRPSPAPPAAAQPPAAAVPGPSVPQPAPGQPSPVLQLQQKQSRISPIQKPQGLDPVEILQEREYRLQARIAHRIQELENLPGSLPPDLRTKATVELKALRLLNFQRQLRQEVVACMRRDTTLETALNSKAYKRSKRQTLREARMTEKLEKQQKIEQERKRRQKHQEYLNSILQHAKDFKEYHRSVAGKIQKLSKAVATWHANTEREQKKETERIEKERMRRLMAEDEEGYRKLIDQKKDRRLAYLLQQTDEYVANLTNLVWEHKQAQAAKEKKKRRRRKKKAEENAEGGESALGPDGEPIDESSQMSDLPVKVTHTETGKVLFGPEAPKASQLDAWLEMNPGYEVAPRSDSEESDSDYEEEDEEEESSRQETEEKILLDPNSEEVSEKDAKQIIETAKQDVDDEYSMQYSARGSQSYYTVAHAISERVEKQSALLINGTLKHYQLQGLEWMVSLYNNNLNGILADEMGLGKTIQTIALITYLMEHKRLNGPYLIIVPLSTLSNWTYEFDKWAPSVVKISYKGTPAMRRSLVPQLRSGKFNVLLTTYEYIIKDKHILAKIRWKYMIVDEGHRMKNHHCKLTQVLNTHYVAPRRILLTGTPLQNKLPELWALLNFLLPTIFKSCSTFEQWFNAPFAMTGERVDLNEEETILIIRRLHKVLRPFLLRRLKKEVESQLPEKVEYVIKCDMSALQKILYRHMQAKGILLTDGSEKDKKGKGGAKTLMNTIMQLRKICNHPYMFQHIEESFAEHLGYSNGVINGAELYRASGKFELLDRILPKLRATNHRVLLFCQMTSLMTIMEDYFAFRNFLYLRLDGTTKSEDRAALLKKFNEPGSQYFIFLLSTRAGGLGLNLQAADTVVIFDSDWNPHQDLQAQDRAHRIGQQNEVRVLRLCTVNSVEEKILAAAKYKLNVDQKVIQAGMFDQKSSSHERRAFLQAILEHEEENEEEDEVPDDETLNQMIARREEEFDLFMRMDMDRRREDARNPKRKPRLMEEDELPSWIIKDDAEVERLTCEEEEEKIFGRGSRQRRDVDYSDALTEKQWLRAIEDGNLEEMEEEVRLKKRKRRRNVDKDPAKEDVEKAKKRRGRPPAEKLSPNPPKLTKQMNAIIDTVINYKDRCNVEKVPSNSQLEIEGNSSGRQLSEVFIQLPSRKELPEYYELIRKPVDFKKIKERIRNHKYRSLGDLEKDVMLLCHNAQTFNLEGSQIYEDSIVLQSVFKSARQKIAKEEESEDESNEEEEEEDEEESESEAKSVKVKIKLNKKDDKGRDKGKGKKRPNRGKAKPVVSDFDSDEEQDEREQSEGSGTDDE
- Assay Remarks: SMARCA2 HiBiT degradation assay in HeLa cells
- Format: cell-based
- Condition: 18 hours incubation, read-out: HeLa_HiBit-SM2 DC50

Worked set:
CC1(CN2C[C@@H]3[C@@H](CN4CCN5c6cc(-c7ccccc7O)nnc6NC[C@H]5C4)[C@@H]3C2)CCN(c2ccc3c(c2)C(=O)N(C2CCC(=O)NC2=O)C3=O)C1 (some centres unmarked) : < 10 nM
O=C1CCC(N2C(=O)c3ccc(OC4CCN(CC5CCN(C(=O)N6CCN7c8cc(-c9ccccc9O)nnc8NC[C@H]7C6)CC5)CC4)cc3C2=O)C(=O)N1 (some centres unmarked) : < 10 nM
CC1CN(CCCC2CCN(c3cccc4c3C(=O)N(C3CCC(=O)NC3=O)C4=O)CC2)CCC1N1CCN2c3cc(-c4ccccc4O)nnc3NC[C@H]2C1 (some centres unmarked) : < 10 nM
O=C1CCC(N2Cc3cc(N4CCC(CNC56CCC(C(=O)N7CCN8c9cc(-c%10ccccc%10O)nnc9NC[C@H]8C7)(CC5)CC6)CC4)ccc3C2=O)C(=O)N1 (some centres unmarked) : < 10 nM
CN(CCN1CCC(N2CCN3c4cc(-c5ccccc5O)nnc4NC[C@H]3C2)CC1)C1CCN(c2ccc3c(c2)C(=O)N(C2CCC(=O)NC2=O)C3=O)CC1 (some centres unmarked) : < 10 nM

[in] What DC50 appears in the records for this compound with SMARCA2-HiBiT (Homo sapiens)? O=C1CCC(N2C(=O)c3cccc(N4CCC(CCCN5C6CCC5CC(N5CCN7c8cc(-c9ccccc9O)nnc8NC[C@H]7C5)C6)CC4)c3C2=O)C(=O)N1 (some centres unmarked)
[out] < 10 nM

[in] What DC50 appears in the records for this compound with SMARCA2-HiBiT (Homo sapiens)? O=C1CCC(N2C(=O)c3ccc(CN4CCC(CN5CCC(CN6CCN7c8cc(-c9ccccc9O)nnc8NC[C@H]7C6)CC5)CC4)cc3C2=O)C(=O)N1 (some centres unmarked)
[out] < 10 nM

[in] What DC50 appears in the records for this compound with SMARCA2-HiBiT (Homo sapiens)? O=C1CCC(N2Cc3ccc(C4CCN(CC5CCN(C(=O)N6CCN7c8cc(-c9ccccc9O)nnc8NC[C@H]7C6)CC5)CC4)cc3C2=O)C(=O)N1 (some centres unmarked)
[out] < 10 nM

[in] What DC50 appears in the records for this compound with SMARCA2-HiBiT (Homo sapiens)? O=C1CCC(N2C(=O)c3ccc(N4CCC(CNC5CCC(CN6CCN7c8cc(-c9ccccc9O)nnc8NC[C@H]7C6)CC5)CC4)cc3C2=O)C(=O)N1 (some centres unmarked)
[out] < 10 nM

[in] What DC50 appears in the records for this compound with SMARCA2-HiBiT (Homo sapiens)? O=C1CCC(N2Cc3cc(N4CCC(CN5CCC(CN6CCN7c8cc(-c9ccccc9O)nnc8NC[C@H]7C6)CC5)CC4)ccc3C2=O)C(=O)N1 (some centres unmarked)
[out] < 10 nM

[in] What DC50 appears in the records for this compound with SMARCA2-HiBiT (Homo sapiens)? O=C1CCC(N2C(=O)c3ccc(N4CCC(CN5CCC6C(C5)C6CN5CCN6c7cc(-c8ccccc8O)nnc7NC[C@H]6C5)CC4)cc3C2=O)C(=O)N1 (some centres unmarked)
[out] < 10 nM
